Biological target: REV7^R124A (human, UniProt Q9UI95 1-211, R124A)
Assay: SPR
pKd: −log10 of the molar value.
readout.type: pKd

Q. Looking for the measured pKd of SHLD3^1–62 (domain or fragment, human, UniProt Q6ZNX1 1-62, looked up, the methods say in general that tags were cleaved; also called SHLD3^RBM; source: E. coli LOBSTR, purified; not shown: hexahistidine-MBP or GST, N-terminal, cleaved) MTTEVILHYRPCESDPTQLPKIAEKAIQDFPTRPLSRFIPWFPYDGSKLPLRPKRSPPVISE , can you help?
A. ~7.17
